Give measured viability at 28.5 h, 10 µM for each item. Keep answers brief.
# test_summary: in vitro
# details: human, hela cells, % viability
Hi! Could you send only the number? It should be in %, unit omitted.

Inquiry: What value of viability at 28.5 h, 10 µM has been recorded for this entry: Cc1noc(C)c1NC(=O)CN1CCOCC1
Reply text: 103

Inquiry: Tell me the measured viability at 28.5 h, 10 µM of Cc1nc(CC(=O)N2CCC[C@@H]3NC(=O)c4ccccc4OCCCCC[C@@H]32)cs1 , please.
Reply text: 102

Inquiry: Consider the compound shown here: Cc1nnc(SCC(=O)Nn2c(-c3ccccc3)nc3ccccc3c2=O)[nH]1 What is its recorded viability at 28.5 h, 10 µM?
Reply text: 86.8

Inquiry: Which value of viability at 28.5 h, 10 µM has been reported for COCCNC(=O)c1cnn2c(C)c(Cc3cccc(C#N)c3)c(C)nc12 in the records?
Reply text: 94.6

Inquiry: GET /values?readout=viability at 28.5 h, 10 µM&item= COc1ccc(S(=O)(=O)Nc2ccc3oc(-c4ccccc4F)cc(=O)c3c2)cc1
Reply text: 90.1

Inquiry: viability at 28.5 h, 10 µM for COc1cc(NC(=O)NCC2CCN(CCOc3c(OC)cccc3OC)CC2)cc(OC)c1 ?
Reply text: 89.1

Inquiry: Which measured viability at 28.5 h, 10 µM value corresponds to Cc1cc(S(=O)(=O)N(c2ccc(C(C)(C)C)cc2)C2CCNCC2)c(C)s1 [CBK165075T] ?
Reply text: 105

Inquiry: Data request, read-out viability at 28.5 h, 10 µM, for Cc1cccc(OCC(=O)NC(=S)Nc2ccccc2N2CCCCC2)c1C
Reply text: 105
